Cited source: patent US12630528B2

# IC50 per entry
target: human DGAT2 (Homo sapiens); construct: FLAG (DYKDDDDK); membrane fraction used; assay: DGAT2 enzyme activity inhibition, Phospholipid FlashPlate SPA; details: recombinant human DGAT2 membrane protein from Sf-21 cells; inhibition of [14C]-TG production; 37° C.
Lab book: enter the figure in nM, no units written.

CCOc1ccccc1O[C@@H]1CCCN(c2cncc(Nc3cccc(N4CCC[C@@H](C(=O)O)C4)n3)n2)C1 [Example 55]: 860
CCOc1ccccc1O[C@@H]1CCCN(c2cncc(Nc3nccc(-c4cccc(CCC(=O)O)c4)n3)n2)C1 [Example 145]: 1700

Query: Lab request: please report IC50 under test system human DGAT2 (Homo sapiens) for CCOc1ccccc1O[C@@H]1CCCN(c2cncc(Nc3nccc(-c4ccc(C(C)(C)C(=O)O)cc4)n3)n2)C1 [Example 143]
Response: 200

* * *

Target: human DGAT2 (Homo sapiens)
Construct: FLAG (DYKDDDDK); membrane fraction used
Test: DGAT2 enzyme activity inhibition, Phospholipid FlashPlate SPA
Conditions: recombinant human DGAT2 membrane protein from Sf-21 cells; inhibition of [14C]-TG production; 37° C.
Excerpt: In order to prepare the pBacPAK9-DGAT2, which is DGAT2 expression vector, the human DGAT2 gene amplified by polymerase chain reaction (PCR) was cloned into the EcoR1 and Xho1 sites of the pBacPAK9 (clonctech) vector. […] Recombinant human DGAT2 protein was expressed in Sf-21 cells, which are insect cells, by using the BacPack baculovirus expression system (Clontech). […] Protein concentration was quantified by using the BCA Protein Assay Kit (Thermo Scientific). […]
The threshold is 300 nM. Values of IC50 beneath it are tagged rule met; values meeting or exceeding it are tagged rule not met.

Query: IC50 strictly < 300 nM for this compound? "CCOc1ccccc1O[C@@H]1CCCN(c2cncc(Nc3cc(-c4ccc(C(C)(C)C(=O)O)cc4)ccn3)n2)C1"
Response: rule not met

Query: Likewise for "CCOc1ccccc1O[C@@H]1CCCN(c2cncc(Nc3cccc(Oc4ccc(C(C)(C)C(=O)O)cc4)n3)n2)C1" ?
Response: rule met

Query: Then this compound: "CCOc1cccnc1O[C@@H]1CCCN(c2cncc(Nc3cccc(-c4ccc(OC(C)(C)C(=O)O)cc4)n3)n2)C1"
Response: rule not met

Query: And "CCOc1ccccc1O[C@@H]1CCCN(c2cncc(Nc3cccc(-c4ccc(C(C)(C)C(=O)O)cc4)n3)n2)C1" ?
Response: rule met

* * *

Documented IC50 across a set of compounds
molecular target: human DGAT2 (Homo sapiens, UniProt Q96PD7); construct: FLAG (DYKDDDDK); membrane fraction used; assay: DGAT2 enzyme activity inhibition, Phospholipid FlashPlate SPA; conditions: recombinant human DGAT2 membrane protein from Sf-21 cells; inhibition of [14C]-TG production; 37° C.
Sequence (Q96PD7 whole entry): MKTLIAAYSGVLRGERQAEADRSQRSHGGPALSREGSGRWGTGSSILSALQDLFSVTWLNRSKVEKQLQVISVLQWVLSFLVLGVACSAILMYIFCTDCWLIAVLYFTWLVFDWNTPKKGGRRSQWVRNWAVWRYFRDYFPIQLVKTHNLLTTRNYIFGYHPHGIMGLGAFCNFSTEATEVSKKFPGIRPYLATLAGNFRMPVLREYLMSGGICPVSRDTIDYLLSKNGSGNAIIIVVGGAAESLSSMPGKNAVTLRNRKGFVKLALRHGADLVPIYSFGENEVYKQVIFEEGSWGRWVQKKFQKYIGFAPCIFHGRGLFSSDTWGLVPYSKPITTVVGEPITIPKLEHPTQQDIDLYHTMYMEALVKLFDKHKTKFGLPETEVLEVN
Write the number in nM without appending the unit.

CCOc1ccccc1O[C@@H]1CCCN(c2cncc(Nc3cccc(N4CCC(C(=O)O)CC4)n3)n2)C1 [Example 56]: 130
CCOc1ccccc1O[C@@H]1CCCN(c2cncc(Nc3nccc(-c4ccc(CC(C)(C)C(=O)O)cc4)n3)n2)C1 [Example 153]: 160

Query: Reported IC50 for human DGAT2 (Homo sapiens, UniProt Q96PD7), given CCOc1cccnc1O[C@@H]1CCCN(c2cncc(Nc3nc(-c4cccc(OC(C)(C)C(=O)O)c4)ccc3F)n2)C1 [Example 104] ?
Response: 170

Query: Field entry: CCOc1ccccc1O[C@@H]1CCCN(c2cncc(Nc3nccc(-c4cccc(OC(C)(C)C(=O)O)c4)n3)n2)C1 [Example 158]
Response: 1100

Query: # repeat for CCOc1ccccc1O[C@@H]1CCCN(c2cncc(Nc3ccn(-c4cccc(CC(C)(C)C(=O)O)c4)n3)n2)C1 [Example 69]
Response: 1100
